// IC50 collected for protein kinases (panel of Table 4) (Homo sapiens)

(Q) Requested read-out IC50, target or system protein kinases (panel of Table 4) (Homo sapiens), entry `COCCNS(=O)(=O)c1cccc(Nc2nccc(-c3sc(N)nc3C)n2)c1`
(A) > 10 µM

(Q) // query: `CNc1nc(C)c(-c2ccnc(Nc3cccc(S(N)(=O)=O)c3)n2)s1`
(A) > 10 µM

(Q) Also `CCNc1nc(C)c(-c2ccnc(Nc3ccc(N4CCNCC4)cc3)n2)s1` , if possible.
(A) > 10 µM

---

Biological target: Aurora A kinase (Homo sapiens)
Construct: purchased
Sequence (O14965 whole entry): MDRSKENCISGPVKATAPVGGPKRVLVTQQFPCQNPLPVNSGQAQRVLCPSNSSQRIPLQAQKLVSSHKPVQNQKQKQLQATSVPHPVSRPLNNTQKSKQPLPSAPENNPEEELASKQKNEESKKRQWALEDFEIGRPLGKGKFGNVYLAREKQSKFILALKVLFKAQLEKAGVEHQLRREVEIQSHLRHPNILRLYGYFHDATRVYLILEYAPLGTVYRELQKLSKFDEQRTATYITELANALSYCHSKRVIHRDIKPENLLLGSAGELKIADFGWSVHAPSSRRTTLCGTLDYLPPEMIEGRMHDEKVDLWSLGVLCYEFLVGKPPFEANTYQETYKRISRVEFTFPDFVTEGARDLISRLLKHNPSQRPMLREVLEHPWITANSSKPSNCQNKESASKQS
Test: Aurora-A (human) kinase assay (Kemptide substrate)
Type: biochemical
Details: pIC50 is -log(IC50, M); 15 μM ATP; read-out: Kinase Inhibition pIC50 Aurora A kinase (converted)
Recorded endpoint: log10 of IC50 (log10 of the value in nM)
Hi team, quick reminder: these entries are log10 of IC50 (nM).

Consider the reported log10 of IC50 for these compounds:
>>> df
                                   compound              measurement_target  recorded_number
0  Cc1nc(C)c(-c2ccnc(Nc3cccc(N4CCOCC4)c3)n2)s1 [Compound 152]  Aurora A kinase (Homo sapiens)             1.70
1  Cc1cc(Nc2nccc(-c3sc(N)nc3C)n2)ccc1N1CCOCC1 [Compound 218]  Aurora A kinase (Homo sapiens)             1.80
2  Cc1nc(CO)sc1-c1ccnc(Nc2ccc(N3CCCCC3)cc2)n1 [Compound 197]  Aurora A kinase (Homo sapiens)             2.00

(Q) Any idea what its log10 of IC50 is? The compound is COc1cc(Nc2nccc(-c3sc(C)nc3C)n2)cc(OC)c1OC [Compound 25]
(A) 1.30

(Q) CNc1nc(C)c(-c2ccnc(Nc3ccc(OC)c(C)c3)n2)s1 [Compound 184] ?
(A) 1.80

(Q) Next: Cc1nc(Nc2ccccc2)sc1-c1ccnc(Nc2ccc(N3CCN(Cc4ccccc4)CC3)cc2)n1 [Compound 176]
(A) 3.80

(Q) Request: COc1ccc(Nc2nccc(-c3sc(C)nc3C)n2)c(C)c1 [Compound 112]
(A) 3.40

(Q) And then CC(=O)NCc1ccc(Nc2nccc(-c3sc(N)nc3C)n2)cc1 [Compound 16] , what is it?
(A) 1.90

(Q) Also COc1ccc(Nc2nccc(-c3sc(C)nc3C)n2)cc1CN1CCOCC1 [Compound 215] ?
(A) 2.30

---

Molecular target: CDK2-cycline E (Homo sapiens, UniProt P24941)
Test: Kinase assay (radioactive phosphate incorporation), CDK2-cyclin E
Assay type: biochemical
Settings: read-out: Kinase Inhibition pIC50 CDK2-cycline E (converted)
Recorded endpoint: IC50 (nM)
Give the number; nM is assumed, so skip it.

A selection of reference data follows.
In [3]: df
Out[3]:
                                   molecule  recorded_number
0  CCNc1nc(C)c(-c2ccnc(Nc3ccc(N4CCOCC4)c(C(N)=O)c3)n2)s1 [Compound 212]             1000
1  Cc1cc(Nc2nccc(-c3sc(N)nc3C)n2)ccc1N1CCCCC1 [Compound 206]             1260
2  COc1cc(Nc2nccc(-c3sc(C)nc3C)n2)cc(OC)c1 [Compound 175]             1260
3  CCNc1nc(C)c(-c2ccnc(Nc3cccc(CNS(=O)(=O)C(F)(F)F)c3)n2)s1 [Compound 10]             1580

Now look at this entry.
(Q) Recorded IC50 of Cc1nc(C)c(-c2ccnc(Nc3cccc(CNS(=O)(=O)C(F)(F)F)c3)n2)s1 [Compound 11] , please.
(A) 158

---

Target: CDK4-cyclin D1 (Homo sapiens)
Sequence (P11802 whole entry): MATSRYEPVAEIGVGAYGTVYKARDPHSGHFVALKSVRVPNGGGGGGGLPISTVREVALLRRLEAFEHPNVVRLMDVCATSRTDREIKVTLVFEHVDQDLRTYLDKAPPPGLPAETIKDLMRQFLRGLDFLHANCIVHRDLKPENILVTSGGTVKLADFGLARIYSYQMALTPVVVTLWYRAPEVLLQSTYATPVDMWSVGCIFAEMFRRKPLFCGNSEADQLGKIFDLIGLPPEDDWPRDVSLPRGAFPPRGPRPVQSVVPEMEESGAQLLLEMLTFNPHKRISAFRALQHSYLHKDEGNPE
Sequence (P24385 whole entry partner): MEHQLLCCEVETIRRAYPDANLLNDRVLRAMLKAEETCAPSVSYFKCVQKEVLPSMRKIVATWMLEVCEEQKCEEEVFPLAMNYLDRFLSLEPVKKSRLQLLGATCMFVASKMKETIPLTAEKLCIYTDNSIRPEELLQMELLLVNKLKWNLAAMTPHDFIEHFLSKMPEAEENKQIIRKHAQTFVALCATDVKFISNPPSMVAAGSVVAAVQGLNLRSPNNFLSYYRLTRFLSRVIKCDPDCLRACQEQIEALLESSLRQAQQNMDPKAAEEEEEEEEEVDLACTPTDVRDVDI
Assay: Kinase assay (radioactive phosphate incorporation), CDK4-cyclin D1
Format: biochemical
Settings: read-out: Kinase Inhibition pIC50 CDK4-cyclin D1 (converted)
Recorded endpoint: IC50 (nM)
Give just the number in nM; leave the unit off.

                                smiles_code             measurement_target  recorded_endpoint  recorded_number
0  Cc1nc(C)c(-c2ccnc(Nc3ccc(S(=O)(=O)NCCO)cc3)n2)s1  CDK4-cyclin D1 (Homo sapiens)               IC50             1000
1  CCNc1nc(C)c(-c2ccnc(Nc3cccc(S(=O)(=O)NC)c3)n2)s1  CDK4-cyclin D1 (Homo sapiens)               IC50              200
2  Cc1nc(NC(C)(C)C)sc1-c1ccnc(Nc2cccc([N+](=O)[O-])c2)n1  CDK4-cyclin D1 (Homo sapiens)               IC50              631
3  CCNc1nc(C)c(-c2ccnc(Nc3ccc(S(=O)(=O)NCCOC)cc3)n2)s1  CDK4-cyclin D1 (Homo sapiens)               IC50              501
4  CNc1nc(C)c(-c2ccnc(Nc3cccc(S(=O)(=O)NCCO)c3)n2)s1  CDK4-cyclin D1 (Homo sapiens)               IC50              100

(Q) What reported IC50 corresponds to `Cc1nc(C)c(-c2ccnc(Nc3cccc(CNS(=O)(=O)C(F)(F)F)c3)n2)s1` on CDK4-cyclin D1 (Homo sapiens)?
(A) 1260

(Q) And what about the compound `CCNc1nc(C)c(-c2ccnc(Nc3cccc(CNS(C)(=O)=O)c3)n2)s1` ?
(A) 158

(Q) And the next one, `CCNc1nc(C)c(-c2ccnc(Nc3ccc(S(=O)(=O)NCCO)cc3)n2)s1` ?
(A) 12.6

(Q) One more compound: `CNS(=O)(=O)c1cccc(Nc2nccc(-c3sc(N)nc3C)n2)c1`
(A) 2510

(Q) # repeat for `CCNc1nc(C)c(-c2ccnc(Nc3ccc(N4CCN(Cc5ccccc5)CC4)cc3)n2)s1`
(A) 158

(Q) Note, next up: `CCNc1nc(C)c(-c2ccnc(Nc3ccc(N4CCNCC4)cc3)n2)s1`
(A) 39.8

(Q) Queued: `CNc1nc(C)c(-c2ccnc(Nc3cccc(S(N)(=O)=O)c3)n2)s1`
(A) 15.8

(Q) Record: `CC(=O)NCc1ccc(Nc2nccc(-c3sc(C)nc3C)n2)cc1`
(A) 631

(Q) Do the same for `CCNc1nc(C)c(-c2ccnc(Nc3ccc(S(C)(=O)=O)cc3)n2)s1` please
(A) 1580

(Q) Let us now turn to `CNc1nc(C)c(-c2ccnc(Nc3cccc(S(=O)(=O)NCCOC)c3)n2)s1`
(A) 251

---

Biological target: CDK9/cyclin T1 (Homo sapiens, UniProt P50750)
Sequence (P50750 whole entry): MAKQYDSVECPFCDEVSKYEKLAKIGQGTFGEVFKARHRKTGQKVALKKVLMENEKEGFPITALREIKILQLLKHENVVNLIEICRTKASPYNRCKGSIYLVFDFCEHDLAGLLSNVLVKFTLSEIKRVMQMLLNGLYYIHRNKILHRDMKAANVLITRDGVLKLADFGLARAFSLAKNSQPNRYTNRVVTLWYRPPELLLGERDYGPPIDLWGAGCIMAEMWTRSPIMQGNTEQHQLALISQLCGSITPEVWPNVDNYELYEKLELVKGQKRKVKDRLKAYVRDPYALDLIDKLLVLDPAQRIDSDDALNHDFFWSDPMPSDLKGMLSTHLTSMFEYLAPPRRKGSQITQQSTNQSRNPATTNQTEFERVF
Sequence (O60563 whole entry partner): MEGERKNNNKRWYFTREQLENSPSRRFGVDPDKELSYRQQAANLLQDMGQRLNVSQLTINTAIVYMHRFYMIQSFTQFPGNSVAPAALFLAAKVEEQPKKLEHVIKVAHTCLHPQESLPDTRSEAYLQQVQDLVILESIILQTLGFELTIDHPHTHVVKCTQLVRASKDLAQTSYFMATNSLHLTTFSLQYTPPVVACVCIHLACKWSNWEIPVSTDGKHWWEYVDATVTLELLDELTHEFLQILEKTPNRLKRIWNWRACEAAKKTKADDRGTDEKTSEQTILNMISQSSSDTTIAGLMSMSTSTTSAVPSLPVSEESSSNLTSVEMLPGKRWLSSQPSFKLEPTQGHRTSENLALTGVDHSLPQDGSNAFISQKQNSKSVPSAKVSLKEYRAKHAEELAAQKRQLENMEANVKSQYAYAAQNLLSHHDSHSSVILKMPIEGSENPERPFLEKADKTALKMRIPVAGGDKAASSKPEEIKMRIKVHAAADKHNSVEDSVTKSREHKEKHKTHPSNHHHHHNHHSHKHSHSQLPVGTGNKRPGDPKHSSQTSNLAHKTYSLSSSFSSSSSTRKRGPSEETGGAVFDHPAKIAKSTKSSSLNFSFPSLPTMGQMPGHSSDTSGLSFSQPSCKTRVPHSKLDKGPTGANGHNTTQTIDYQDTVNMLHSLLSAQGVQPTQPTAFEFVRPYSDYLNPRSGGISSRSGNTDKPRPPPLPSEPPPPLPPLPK
Experiment: CDK 9 assay (CTD peptide substrate)
Assay type: biochemical
Details: read-out: Kinase Inhibition pIC50 CDK9-cyclin T1 (converted)
Protocol: Kinase assays. The compounds of the invention above were investigated for their ability to inhibit the enzymatic activity of various protein kinases (Table 2). This was achieved by measurement of incorporation of radioactive phosphate from ATP into appropriate polypeptide substrates. […] After washing 3 times with 75 mM aq orthophosphoric acid, plates were dried, scintillant added and incorporated radioactivity measured in a scintillation counter (TopCount, Packard Instruments, Pangbourne, Berks, UK). […]
Below is a list of entries, each paired with its recorded IC50 value.
Reply numerically in nM, unit not repeated.

(Q) Param item = `CNS(=O)(=O)c1cccc(Nc2nccc(-c3sc(C)nc3C)n2)c1` ; retrieve measured IC50.
(A) 10

(Q) Field entry: `CNS(=O)(=O)c1cccc(Nc2nccc(-c3sc(N)nc3C)n2)c1`
(A) 126

(Q) How about this molecule: CCNc1nc(C)c(-c2ccnc(Nc3ccc(N4CC(C)OC(C)C4)cc3)n2)s1 (centres unmarked)
(A) 3160

(Q) Next up: `CC(=O)N1CCN(c2ccc(Nc3nccc(-c4sc(N(C)c5cccnc5)nc4C)n3)cc2)CC1`
(A) 2000

(Q) And `Cc1nc(N)sc1-c1ccnc(Nc2ccc(N3CCNCC3)cc2)n1` ?
(A) 158

---

Molecular target: CDK2-cycline E (Homo sapiens)
Assay: Kinase assay (radioactive phosphate incorporation), CDK2-cyclin E
Assay type: biochemical
Conditions: read-out: Kinase Inhibition pIC50 CDK2-cycline E (converted)
Description: Kinase assays. The compounds of the invention above were investigated for their ability to inhibit the enzymatic activity of various protein kinases (Table 2). This was achieved by measurement of incorporation of radioactive phosphate from ATP into appropriate polypeptide substrates. […] After washing 3 times with 75 mM aq orthophosphoric acid, plates were dried, scintillant added and incorporated radioactivity measured in a scintillation counter (TopCount, Packard Instruments, Pangbourne, Berks, UK). […]
Recorded endpoint: log10 of IC50 (log10 of the value in nM)
Note: values are log10 of IC50 expressed in nM.

Below are worked cases with known answers.
>>> print(df.to_string())
                                   molecule  recorded_number
0  CCNS(=O)(=O)c1cccc(Nc2nccc(-c3sc(N)nc3C)n2)c1 [Compound 30]             2.00
1  CCNc1nc(C)c(-c2ccnc(Nc3cccc(S(C)(=O)=O)c3)n2)s1 [Compound 28]             1.20
2  Cc1nc(C)c(-c2ccnc(Nc3ccc(O)c(CN4CCOCC4)c3)n2)s1 [Compound 151]             2.30
3  CC(=O)N1CCN(c2ccc(Nc3nccc(-c4sc(NCCc5ccccc5)nc4C)n3)cc2)CC1 [Compound 163]             3.10
4  COc1cc(Nc2nccc(-c3sc(N)nc3C)n2)cc(OC)c1 [Compound 161]             2.20

Please find the next molecule below.
(Q) So what does the record say about log10 of IC50 for CCNc1nc(C)c(-c2ccnc(Nc3cccc(S(=O)(=O)NC)c3)n2)s1 [Compound 22] ?
(A) 2.00

Reference source: patent US20090137572A1
